B1: library; a variant is named by its letters at N, in order (parent)
chain: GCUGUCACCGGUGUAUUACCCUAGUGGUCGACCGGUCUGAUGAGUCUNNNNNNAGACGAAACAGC

variants of: B1; experiment: normalized RNA/DNA level with ligand (relative to sTRSVctl = 100) (log10 (% of sTRSVctl)); ligand: hypoxanthine (xanthine aptamer); higher = less ribozyme self-cleavage, higher mRNA level; details: ligand concentration (+) RNA-Seq: 5 mM, HEK293T, reporter: mCherry (pCS4076), ligand present: yes
Reported normalized RNA/DNA level with ligand (log10) by item:
Lab note: record the figure alone, no unit after it.

> print(dat)
   mutant  assay.value
1  UGCACU         1.94

Recorded result, AGGCGG , normalized RNA/DNA level with ligand (log10): 1.84

Recorded result, GCGCAA , normalized RNA/DNA level with ligand (log10): 1.87

Recorded result, AUCCGU , normalized RNA/DNA level with ligand (log10): 1.96

Recorded result, UUCCCG , normalized RNA/DNA level with ligand (log10): 1.92

Recorded result, GUAGUC , normalized RNA/DNA level with ligand (log10): 1.98
